Target: UniProt P33535
Test: Agonist activity at rat MOR expressed in rat C6 cells at 10 uM after 1 hr by [35S]GTPgammaS binding assay relative to DAMGO
Type: functional, cell-based
MEASUREMENT TYPE: max activation
A complete answer gives the number followed by the unit.

Cc1cccc(C)c1C[C@H](N)C(=O)N[C@@H]1CCNc2ccc(Cc3ccccc3)cc21 : 86%
N[C@@H](Cc1c(Cl)cc(O)cc1Cl)C(=O)N[C@@H]1CCNc2ccc(Cc3ccccc3)cc21 : 83%
Cc1cc(C[C@H](N)C(=O)N[C@@H]2CCNc3ccc(Cc4ccccc4)cc32)c(C)cc1O : 89%

With those in mind, consider the next compound.
Please fill in: max activation reported for `Cc1cc(O)ccc1C[C@H](N)C(=O)N[C@@H]1CCNc2ccc(Cc3ccccc3)cc21` = 69%

---

Target: Mu-type opioid receptor (Rattus norvegicus, UniProt P33535)
Sequence (P33535 whole entry): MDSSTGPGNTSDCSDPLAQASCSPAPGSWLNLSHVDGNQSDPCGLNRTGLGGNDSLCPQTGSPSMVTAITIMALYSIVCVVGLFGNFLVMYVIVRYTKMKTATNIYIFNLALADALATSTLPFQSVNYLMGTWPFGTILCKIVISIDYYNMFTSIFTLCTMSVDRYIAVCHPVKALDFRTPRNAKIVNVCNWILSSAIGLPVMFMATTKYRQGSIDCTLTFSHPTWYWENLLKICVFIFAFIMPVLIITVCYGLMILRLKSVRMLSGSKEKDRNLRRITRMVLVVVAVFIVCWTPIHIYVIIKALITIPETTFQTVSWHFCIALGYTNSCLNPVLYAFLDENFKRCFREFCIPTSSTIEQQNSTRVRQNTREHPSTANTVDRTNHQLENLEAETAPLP
Assay: Agonist activity at rat MOR expressed in rat C6 cells after 1 hr by [35S]GTPgammaS binding assay
MEASUREMENT TYPE: EC50
A complete answer gives the number followed by the unit.

Recorded EC50 for `N[C@@H](Cc1c(Cl)cc(O)cc1Cl)C(=O)N[C@@H]1CCNc2ccc(Cc3ccccc3)cc21` on Mu-type opioid receptor (Rattus norvegicus, UniProt P33535) was 33 nM

Recorded EC50 for `Cc1cc(O)ccc1C[C@H](N)C(=O)N[C@@H]1CCNc2ccc(Cc3ccccc3)cc21` on Mu-type opioid receptor (Rattus norvegicus, UniProt P33535) was 44 nM

Recorded EC50 for `Cc1cc(C[C@H](N)C(=O)N[C@@H]2CCNc3ccc(Cc4ccccc4)cc32)c(C)cc1O` on Mu-type opioid receptor (Rattus norvegicus, UniProt P33535) was 39 nM

Recorded EC50 for `Cc1cccc(C)c1C[C@H](N)C(=O)N[C@@H]1CCNc2ccc(Cc3ccccc3)cc21` on Mu-type opioid receptor (Rattus norvegicus, UniProt P33535) was 280 nM

---

Target: Delta-type opioid receptor (Rattus norvegicus)
Sequence (P33533 whole entry): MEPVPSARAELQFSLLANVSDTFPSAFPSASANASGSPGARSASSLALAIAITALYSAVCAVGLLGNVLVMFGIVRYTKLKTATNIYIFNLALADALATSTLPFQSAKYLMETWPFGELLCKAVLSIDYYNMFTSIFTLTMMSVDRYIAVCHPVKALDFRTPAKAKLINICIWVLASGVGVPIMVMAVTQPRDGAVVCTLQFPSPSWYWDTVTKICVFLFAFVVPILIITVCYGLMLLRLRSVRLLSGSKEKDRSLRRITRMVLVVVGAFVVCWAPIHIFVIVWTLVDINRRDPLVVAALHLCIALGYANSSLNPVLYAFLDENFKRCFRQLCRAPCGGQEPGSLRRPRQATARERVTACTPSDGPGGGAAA
Assay: Displacement of [3H]diprenorphine from rat DOR expressed in rat C6 cells after 1 hr by liquid scintillation counting method
pKi: −log10 of the molar value.
// No strictly below 7 in pKi; Yes otherwise

# count of solved cases: 4
Cc1cc(O)ccc1C[C@H](N)C(=O)N[C@@H]1CCNc2ccc(Cc3ccccc3)cc21 : Yes
Cc1cc(C[C@H](N)C(=O)N[C@@H]2CCNc3ccc(Cc4ccccc4)cc32)c(C)cc1O : No
N[C@@H](Cc1c(Cl)cc(O)cc1Cl)C(=O)N[C@@H]1CCNc2ccc(Cc3ccccc3)cc21 : Yes
Cc1cccc(C)c1C[C@H](N)C(=O)N[C@@H]1CCNc2ccc(Cc3ccccc3)cc21 : No

Ask: Is pKi at least 7? Consider `N[C@@H](Cc1ccc2cccc(O)c2c1)C(=O)N[C@@H]1CCNc2ccc(Cc3ccccc3)cc21`
Reply: No

---

Target: Mu-type opioid receptor (Rattus norvegicus, UniProt P33535)
pKi: −log10 of the molar value.
// no strictly below 8 in pKi; yes otherwise

# count of solved cases: 3
N[C@@H](Cc1ccc2cccc(O)c2c1)C(=O)N[C@@H]1CCNc2ccc(Cc3ccccc3)cc21 : no
N[C@@H](Cc1c(Cl)cc(O)cc1Cl)C(=O)N[C@@H]1CCNc2ccc(Cc3ccccc3)cc21 : yes
Cc1cc(O)ccc1C[C@H](N)C(=O)N[C@@H]1CCNc2ccc(Cc3ccccc3)cc21 : yes

We next turn to a different compound, shown below.
Ask: Is pKi at least 8? Consider `Cc1cccc(C)c1C[C@H](N)C(=O)N[C@@H]1CCNc2ccc(Cc3ccccc3)cc21`
Reply: no

From: ChEMBL document CHEMBL3769345
